These entries and their values trace back to ChEMBL document CHEMBL1201862.

test system: SNB-19; experiment: NCI tumour cell line growth inhibition, 48 h
Calls of active or inactive are those of the source. No stated cut-off is given here; in the data, active = GI50 up to about 1.1 µM and inactive = higher.
MEASURED_PROPERTY: GI50

Give its GI50 value. Item: Cn1c(-c2ccccc2)cc(-c2ccc3c(c2)OCO3)c1-c1ccsc1 > 100 µM (inactive)

Give its GI50 value. Item: COc1c(C(=O)NCCN(CCNC(=O)c2cccc(-c3cccc(C(=O)N(C)C)c3OC)c2OC)CCNC(=O)c2cccc(-c3cccc(C(=O)N(C)C)c3OC)c2OC)cccc1-c1cccc(C(=O)N(C)C)c1OC 56.5 µM (inactive)

Give its GI50 value. Item: O=C1Nc2ccc([N+](=O)[O-])cc2/C1=N/NC(=S)Nc1ccccc1 5.35 µM (inactive)

Give its GI50 value. Item: Cn1cnc(N2CCCC2)c(C#N)c1=O > 100 µM (inactive)

Give its GI50 value. Item: CC1=NN(c2cc(Cl)c(S(=O)(=O)O)cc2Cl)C2(C1)C(Cl)C(=O)N2c1nc2ccccc2s1 (stereo not given) > 100 µM (inactive)

Give its GI50 value. Item: Fc1sc2c(c1F)C1CCC2C1 (stereo not given) > 100 µM (inactive)

Give its GI50 value. Item: O=C1C=C2CCC[C@H]3OC(=O)C[C@@]23CC1 > 100 µM (inactive)

Give its GI50 value. Item: NC(=O)Nc1ccc(C(=O)NCCCNC(=O)c2ccc(NC(N)=O)cc2)cc1 > 100 µM (inactive)

Give its GI50 value. Item: NC(=O)Nc1c([N+](=O)[O-])cc(C(F)(F)F)cc1[N+](=O)[O-] > 100 µM (inactive)

Give its GI50 value. Item: COC(=O)c1ccccc1C1CN=NC12Cc1cc(C)ccc1C2=O (stereo not given) > 100 µM (inactive)

Give its GI50 value. Item: COc1cc2c[n+]3c4c(c2c(OC)c1OC)CCCC4CC3 (stereo not given) 36.6 µM (inactive)

Give its GI50 value. Item: N#CCCN(c1ccc(/C=N/c2nc(-c3ccccc3)cs2)cc1)S(=O)(=O)c1ccccc1 > 100 µM (inactive)

Give its GI50 value. Item: Cc1cccc(NC2=NC(=O)C(CC(=O)Nc3ccccc3Cl)S2)c1 (stereo not given) > 100 µM (inactive)

Give its GI50 value. Item: Clc1ccc(Nc2nnc(CCCCCCCCc3nnc(Nc4ccc(Cl)cc4)o3)o2)cc1 26.3 µM (inactive)

Give its GI50 value. Item: CCCCCCCCCCCCCCCCOC(=O)C(C(=O)OCCCCCCCCCCCCCCCC)[N+](C)(C)CCOC(C)=O 13.4 µM (inactive)

Give its GI50 value. Item: CC1(C)CCC(Sc2ccccc2)O1 (stereo not given) > 100 µM (inactive)

Give its GI50 value. Item: CCOc1ccccc1Nc1ccc(N)cc1S(=O)(=O)O > 100 µM (inactive)

Give its GI50 value. Item: COc1ccc2c(c1)[n+]([O-])c(-c1ccc(Cl)c(Cl)c1)c(N)[n+]2[O-] > 100 µM (inactive)

Give its GI50 value. Item: COc1ccc(N2C(=O)C3c4[nH]c5ccccc5c4C4CC(C)CC(C)C4C3C2=O)cc1 (stereo not given) > 100 µM (inactive)

Give its GI50 value. Item: COc1ccc(NC(=O)CC/C(CC(=O)c2ccco2)=N/Nc2ccc([N+](=O)[O-])cc2[N+](=O)[O-])cc1 > 100 µM (inactive)
